Protocol Summary: NCI Yeast Anticancer Drug Screen. Data for the bub3 strain (AID 167)
Measurement Context: S. cerevisiae bub3 mutant strain, at 50.0 µM (retest, dose inferred, filed as 5.0)
About 79,000 compounds went through this panel and 15% of them were active in at least one assay; those are over-represented in the sample as a whole. Activity calls are given as the source filed them. Rule as the data show it: active = growth inhibition above about 70%; inactive = the rest.
Possible outcomes: 1 = active, -1 = inactive

Compound: CC(C)C1=CC2=CC(=O)C3C(C)(C)CCCC3(C)C2=C(O)C1=O (configuration not stated)
Group: 1
//
Compound: N#CC(NNC(=O)c1ccccc1O)c1c(O)ccc2ccccc12 (configuration not stated)
Group: 1
//
Compound: CCCC(C(=O)OCCN1CCCC1(C)C)C1CCCC1 (configuration not stated)
Group: -1
//
Compound: CCn1c(C)cc(=O)n1-c1ccc([N+](=O)[O-])cc1
Group: -1
//
Compound: CCN(CC)CCCCSc1ccc([N+](=O)[O-])cc1[N+](=O)[O-]
Group: -1
//
Compound: CC(C)C(CC(C)(C)C)OC(=O)Nc1cccc2ccccc12 (configuration not stated)
Group: 1
//
Compound: CC12CCC3c4cc(O)ccc4CCC3C1CCC2O (configuration not stated)
Group: -1
//
Compound: COC(=O)C1c2cc(C)ccc2-c2ccc(C)cc21
Group: -1
//
Compound: O=C(O)c1ccccc1C(=O)c1ccc2c(c1)Cc1ccccc1-2
Group: -1
//
Compound: S=C(Nc1ccccc1)NC1CCCCCCCCC1
Group: -1
//
Compound: Clc1ncccc1-n1cccc1/C=N\N=C/c1cccn1-c1cccnc1Cl
Group: 1
//
Compound: Cc1ccccc1NC(=O)Cc1csc(N=Nc2c(O)[nH]c3ccccc23)n1
Group: -1

---

Protocol Summary: NCI Yeast Anticancer Drug Screen. Data for the mec2-1 strain (AID 157)
Measurement Context: S. cerevisiae mec2-1 strain, at 50.0 µM, active compounds read high
About 79,000 compounds went through this panel and 15% of them were active in at least one assay; those are over-represented in the sample as a whole. Where a SMILES comes first, the peptide text is derived from it. [ ]: non-standard residue; d: D form. The star is where a group is joined. Phe(4-NO2) = N[CH](Cc1ccc([N+](=O)[O-])cc1)C(=O)O; Boc = CC(C)(C)OC(=O)*
Classification field: enter satisfied for growth inhibition values not below 80%, not satisfied for values below it.

Compound: O=P(O)(O)Oc1c(O)c2ccccc2c2ccccc12
Group: satisfied
//
Compound: Nc1ccc(N)c2c1C(=O)c1ccccc1C2=O
Group: not satisfied
//
Compound: Cc1cc(NCCO)nc2c1ccc1ccccc12
Group: not satisfied
//
Compound: c1ccc(Cn2nnc(-c3ccccc3)c2-c2ccccc2)cc1
Group: satisfied
//
Compound: O=C1C=CC(=O)C2C1Cc1ccccc1C2c1ccccc1 (stereo not given)
Group: satisfied
//
Compound: CC(=O)[C@H]1CC[C@H]2[C@@H]3CC[C@H]4C[C@@H](N5CCOCC5)CC[C@]4(C)[C@H]3CC[C@]12C
Group: not satisfied
//
Compound: COc1ccc(/C(=N/NC(N)=O)C(c2ccc(OC)cc2)C2C(=O)Oc3ccccc32)cc1 (stereo not given)
Group: satisfied
//
Compound: Fc1cccc(NC(=S)SCc2ccco2)c1
Group: satisfied
//
Compound: N#CSC#Cc1ccc(C#CSC#N)cc1
Group: satisfied
//
Compound: CC1C/C(=C\c2ccc(O)c(O)c2)C(=O)/C(=C/c2ccc(O)c(O)c2)C1 (stereo not given)
Group: not satisfied
//
Compound: Fc1ccc(NC2=NCCN=C(Nc3ccc(F)cc3)SS2)cc1
Group: satisfied
//
Compound: CCC(C)(C)C(=O)OCC(=O)c1ccc(-c2ccccc2)cc1
Group: not satisfied
//
Compound: CNC(=O)CCC(NC(=O)OC(C)(C)C)C(=O)NC(Cc1ccc([N+](=O)[O-])cc1)C(=O)NCC(=O)NC (stereo not given) (Boc-Glu(NHMe)-[Phe(4-NO2)]-Gly-NHMe; configuration not given here)
Group: not satisfied
//
Compound: O=C(C#CC(=O)[O][Sn]([c]1ccccc1)([c]1ccccc1)[c]1ccccc1)[O][Sn]([c]1ccccc1)([c]1ccccc1)[c]1ccccc1
Group: satisfied
//
Compound: O=c1cccccc1[O-].O=c1cccccc1[O-].O=c1cccccc1[O-].[Dy+3]
Group: satisfied
//
Compound: Cc1cc(N(CCOS(C)(=O)=O)CCOS(C)(=O)=O)ccc1C=Nc1ccccc1C(=O)O
Group: not satisfied
//
Compound: C=Nc1ccc2ccccc2c1Cc1c(O)ccc2ccccc12
Group: satisfied
//
Compound: O=[N+]([O-])c1ccc2c(c1)/C(=C/c1ccc(O)cc1)c1ccccc1-2
Group: satisfied
//
Compound: C[n+]1c(/C=C/c2ccc(N3CCCC3)cc2)sc2ccccc21
Group: satisfied
//
Compound: COc1ccc(S)cc1
Group: not satisfied
//
Compound: Nc1ccccc1C(=O)NCCc1c[nH]c2ccccc12
Group: not satisfied
//
Compound: Cc1ccc(C(O)CCN2CCOCC2)c(C)c1 (stereo not given)
Group: not satisfied
//
Compound: COc1cc([C@H]2c3c(cc(OC)c(OC)c3OC)CC3COC(=O)[C@@H]32)cc2c1OCO2 (stereo not given in full)
Group: satisfied
//
Compound: CCCCCCC(C)OC(=O)c1ccccc1C(=O)O (stereo not given)
Group: not satisfied
//
Compound: O=[N+]([O-])c1ccc(C(Br)(Br)c2ccc([N+](=O)[O-])cc2)cc1
Group: satisfied
//
Compound: C/C(C=C(C#N)C#N)=C\c1ccc([N+](=O)[O-])cc1
Group: not satisfied
//
Compound: CCOP(=O)(OCC)/C(C#N)=C/c1ccc(Oc2ccccc2)cc1
Group: satisfied
//
Compound: CSc1nc2ccccc2s1
Group: not satisfied
//
Compound: CCOC(=O)c1ccc(-c2cccs2)n1C
Group: not satisfied
//
Compound: COc1ccc(/C=C/Cc2cc3c(cc2O)OCO3)cc1
Group: not satisfied
//
Compound: O=C(N/C(=C\c1ccccc1)C(=O)N1CCN(c2ccccc2)CC1)c1ccccc1
Group: satisfied
//
Compound: CN(C)c1ccc(/C=C/c2ccnc3ccccc23)cc1Cl
Group: not satisfied
//
Compound: Nc1cn(C2OC(CC(c3ccccc3)(c3ccccc3)c3ccccc3)C(O)C2O)c(=O)[nH]c1=O (stereo not given)
Group: not satisfied
//
Compound: O=C(O)c1ccc2c(O)c3ccccc3c(O)c2c1
Group: satisfied
//
Compound: CNCC(O)c1cccc(O)c1 (stereo not given)
Group: not satisfied
//
Compound: NC(Cc1ccccc1)c1ccc2cccc3c2c1CC3 (stereo not given)
Group: not satisfied
//
Compound: C1=C(c2ccccc2)OC(c2ccccc2)=C[P+]1(c1ccccc1)c1ccccc1
Group: satisfied
//
Compound: Ic1ccc2c(c1)N(c1ccccc1)c1cc(N=c3ccc4nc5ccc(I)cc5n(-c5ccccc5)c-4c3)ccc1N2
Group: satisfied
//
Compound: COc1cccc(/C=C/C(C)=O)c1OC
Group: not satisfied
//
Compound: CCCN(CCC)c1ccc(Cc2ccc(N(CCC)CCC)cc2N)c(N)c1
Group: satisfied
//
Compound: Cc1cc2nc(-c3ccccc3[N+](=O)[O-])[nH]c2cc1C
Group: not satisfied
//
Compound: CC(O)c1cccnc1 (stereo not given)
Group: not satisfied
//
Compound: O=C1c2ccccc2-c2cc3ccccc3nc21
Group: not satisfied
//
Compound: O=C1c2ccccc2C(=O)c2sc(Nc3ccc([N+](=O)[O-])cc3)nc21
Group: not satisfied

---

Protocol Summary: NCI Yeast Anticancer Drug Screen. Data for the cln2 rad14 strain (AID 165);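 also: 0% = growth equal to vehicle treated cultures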
Measurement Context: S. cerevisiae cln2 rad14 strain, at 5.0 µM (retest, dose inferred, filed as 0.5)
About 79,000 compounds went through this panel and 15% of them were active in at least one assay; those are over-represented in the sample as a whole. Calls of active or inactive are those of the source. No stated cut-off is given here; in the data, active means growth inhibition above about 70%; inactive means the rest.
Possible outcomes: y (active), n (inactive)

Molecule: Cc1ccc(C(C)(C)C)c(O)c1O
Group: n

Molecule: O=C(O)c1ccc2c(c1)CCCC2
Group: n

Molecule: C/C(=N/NC(N)=S)C(C)C
Group: n

Molecule: COc1cc2c(cc1OC)C(C)N(C)c1c-2c(OC(C)=O)cc2cc(OC)c(OC)cc12 (stereo not given)
Group: n

Molecule: Oc1cc(Br)ccc1/C=N/Nc1ccccn1
Group: n

Molecule: O=C1NC(O)c2cccc(Cl)c2O1 (stereo not given)
Group: n

Molecule: CSc1cc2c(cc1N)Cc1cc(F)ccc1-2
Group: n

Molecule: c1ccc2c(c1)ccc1c2ccc2sc3ccccc3[n+]21
Group: n

Molecule: CCCCCCCCCCOC(=O)c1ccccn1
Group: n

Molecule: S=c1[nH]nc(Nc2ccccc2Cl)s1
Group: n

Molecule: CC/C(C)=N/OC(=O)Nc1ccccc1
Group: n

Molecule: CN(C)CCOC1OCN(C)CC1(C)C (stereo not given)
Group: n

Molecule: C[CH2][Ge]([CH2]C)[CH2]C.C[CH2][Ge]([Cl])[CH2]C.C[CH2][Ge][CH2]C
Group: n

Molecule: O=C1c2ccc3ccccc3c2CCC1[n+]1ccc2ccccc2c1 (stereo not given)
Group: n

Molecule: CC(CN(C)C)C(=O)/C=C/c1c(Cl)cccc1Cl (stereo not given)
Group: n

Molecule: C/C(=N\NC(N)=S)c1ccc(C2CCCCC2)cc1
Group: n

Molecule: Cc1ccc(C(OS(=O)(=O)c2ccc(C)cc2)C(F)(F)F)cc1 (stereo not given)
Group: n

Molecule: CC(=O)c1ccc2c(c1)CC1(C2)Cc2ccccc2C1=O (stereo not given)
Group: n

Molecule: CC(=O)c1c2c(cc3c1CC1(Cc4cc5c(cc4C1)C(=O)CCC5)C3)CCCC2 (stereo not given)
Group: n

Molecule: C/C(=N\NC(=S)N(C)C)c1cccnn1
Group: y

Molecule: N#C/C(=C1C=C/C(=N/O)c2ccccc2/1)c1ccc(Cl)cc1
Group: n

Molecule: O=C(CN1CCCCC1)CC(O)(C(F)(F)F)C(F)(F)F
Group: n

Molecule: COc1cc([C@H]2c3c(cc(OC)c(OC)c3OC)CC3COC(=O)[C@@H]32)cc2c1OCO2 (stereo not given in full)
Group: n

Molecule: CCOC(=O)C(Br)C(Br)c1cccc(Cl)c1 (stereo not given)
Group: n

Molecule: Cc1cc(NC(=S)SCc2ccc(Cl)cc2)c([N+](=O)[O-])cc1C
Group: n

Reference source: PubChem BioAssay (NCI)
